Assignment: determine reported Vd for the given compounds.
experiment.description: Volume of distribution at steady state in monkey after iv administration
Assay type: ADME, organism-based
settings: macaca, in vivo, read-out: Vdss
The reply should contain only the number, in L/kg.

input: // query Vd value for entry C#C[C@]1(O)CC[C@H]2[C@@H]3CCc4cc(O)ccc4[C@H]3[C@@H](OC)C[C@@]21C [MOXESTROL]
output: 1.8

input: Recorded Vd for Cc1cn([C@H]2C[C@H](N=[N+]=[N-])[C@@H](CO)O2)c(=O)[nH]c1=O [ZIDOVUDINE] , please?
output: 1

input: # lookup: Vd of CO/N=C(\C(=O)N[C@@H]1C(=O)N2C(C(=O)[O-])=C(C[N+]34CCC(C(N)=O)(CC3)CC4)CS[C@H]12)c1nsc(N)n1 [CEFCLIDIN]
output: 0.28

input: Please give the measured Vd for this compound: `C[C@@H](O)[C@H]1C(=O)N2C(C(=O)O)=C(COC(N)=O)S[C@H]12`
output: 0.15

input: May I ask what Vd has been recorded for CO/N=C(\C(=O)N[C@@H]1C(=O)N2C(C(=O)[O-])=C(C[n+]3ccn4ncccc43)CS[C@H]12)c1nsc(N)n1 [CEFOZOPRAN] ?
output: 0.2

input: Entry O=[N+]([O-])O[C@H]1CO[C@H]2[C@@H]1OC[C@H]2O[N+](=O)[O-] [ISOSORBIDE DINITRATE] has what Vd?
output: 1.7

input: Which Vd reading was recorded for the compound O=P1(N(CCCl)CCCl)NCCCO1 (configuration not stated) [CYCLOPHOSPHAMIDE ANHYDROUS] ?
output: 1.3

input: Which Vd value is on record for O=C(c1ccccc1)c1ccc2n1CCC2C(=O)O (configuration not stated) [KETOROLAC] ?
output: 0.09

input: Name the reported Vd value associated with the compound Cc1cccnc1NS(=O)(=O)c1ccc(C#Cc2ccc(O)c(C(=O)O)c2)cc1 [SUSALIMOD]
output: 0.08

input: Suppose we examine the compound O=C(OC1C[C@@H]2CC3C[C@@H](C1)N2CC3O)c1c[nH]c2ccccc12 (some centres not stated) ; what Vd value has been reported?
output: 28

input: Which Vd is reported for this compound? Cc1cc(=O)n(-c2ccccc2)n1C [ANTIPYRINE]
output: 0.74

input: Record request: Vd value, item CC1CCCC(C)N1CCCC(O)(c1ccccc1)c1ccccn1 (configuration not stated) [PIRMENOL]
output: 1.4

###

experiment.description: Clearance in human after iv administration
Format: ADME, organism-based
settings: in vivo
Give clearance for every item shown.
// return numeric value only (unit: mL/min/kg, not printed)

input: Field request: clearance | item: CO/N=C(\C(=O)N[C@@H]1C(=O)N2C(C(=O)O)=C(CSc3nc(C)c(CC(=O)O)s3)CS[C@H]12)c1csc(N)n1 [CEFODIZIME]
output: 0.73

input: Item under review: O=C(O)C[C@H](NC(=O)CP(=O)(O)O)C(=O)O [PALA] . Reported clearance?
output: 0.8

input: // query clearance value for entry CC#CCC(C)[C@H](O)/C=C/[C@@H]1[C@H]2C/C(=C/CCCC(=O)O)C[C@H]2C[C@H]1O (some centres undefined) [ILOPROST]
output: 17

input: State the recorded clearance for this entry: C#C[C@]1(O)CC[C@H]2[C@@H]3CCc4cc(O)ccc4[C@H]3[C@@H](OC)C[C@@]21C [MOXESTROL]
output: 0.34

###

experiment.description: Clearance in human after iv administration
Type: ADME, organism-based
settings: in vivo
Please provide measured clearance for the entries that follow.

input: For the compound shown here, `CN1CCC[C@H]1c1cccnc1` , give the reported clearance.
output: 19 mL/min/kg

input: Return reported clearance; argument: `CO/N=C(\C(=O)N[C@@H]1C(=O)N2C(C(=O)O)=C(CSc3nc(=O)c(=O)[nH]n3C)CS[C@H]12)c1csc(N)n1`
output: 0.24 mL/min/kg

input: Any idea what clearance was measured for `NC(=O)c1cc[n+](COC[n+]2ccccc2/C=N/O)cc1` ?
output: 3.2 mL/min/kg

input: Can you look up the measured clearance of `C#C[C@]1(O)CC[C@H]2[C@@H]3CCc4cc(O)ccc4[C@H]3CC[C@@]21C` for me?
output: 5 mL/min/kg

input: # clearance lookup, item `CC[C@]1(O)C[C@@H]2CN(CCc3c([nH]c4ccccc34)[C@@](C(=O)OC)(c3cc4c(cc3OC)N(C)[C@H]3[C@@](O)(C(=O)OC)[C@H](OC(C)=O)[C@]5(CC)C=CCN6CC[C@]43[C@@H]65)C2)C1`
output: 12 mL/min/kg

input: Param item = `C[C@@H](O)[C@H]1C(=O)N2C(C(=O)O)=C(S[C@@H]3CN[C@H](C(=O)N(C)C)C3)[C@H](C)[C@H]12` ; retrieve measured clearance.
output: 4 mL/min/kg

input: Item under review: O=C(OC1C[C@@H]2CC3C[C@@H](C1)N2CC3O)c1c[nH]c2ccccc12 (some centres not stated) . Reported clearance?
output: 22 mL/min/kg

###

experiment.description: Clearance in monkey after iv administration
Assay type: ADME, organism-based
settings: macaca, in vivo
I'd be grateful if you could share measured clearance for these entries.
A number alone suffices; assume mL/min/kg.

input: Requested field: clearance. Item: `CC(=N)N1CC[C@H](SC2=C(C(=O)O)N3C(=O)[C@H]([C@@H](C)O)[C@H]3C2)C1`
output: 6.5

input: Give the measured clearance of CO[C@@]1(NC(=O)C2SC(=C(C(N)=O)C(=O)O)S2)C(=O)N2C(C(=O)O)=C(CSc3nnnn3C)CS[C@@H]21 (stereo not given in full) [CEFOTETAN] .
output: 1.7

input: Would you kindly share the measured clearance for Cc1c(C)c2c(c(C)c1O)CCC(C)(COc1ccc(CC3SC(=O)NC3=O)cc1)O2 (stereo not given) [TROGLITAZONE] ?
output: 8.3

input: Which value of clearance has been reported for Cn1c(=O)c2c(ncn2C)n(C)c1=O [CAFFEINE] in the records?
output: 3.1

input: Field request: clearance | item: O=P1(N(CCCl)CCCl)NCCCO1 (stereo not given) [CYCLOPHOSPHAMIDE ANHYDROUS]
output: 20

input: Need clearance of c1ccc(C2(N3CCCCC3)CCCCC2)cc1 [PHENCYCLIDINE] , thanks.
output: 37

input: Which clearance is listed for CO/N=C(\C(=O)N[C@@H]1C(=O)N2C(C(=O)[O-])=C(C[n+]3ccn4ncccc43)CS[C@H]12)c1nsc(N)n1 [CEFOZOPRAN] ?
output: 1.9

input: Param item = CC1(C)O[C@@H]2C[C@H]3[C@@H]4C[C@H](F)C5=CC(=O)C=C[C@]5(C)[C@H]4[C@@H](O)C[C@]3(C)[C@]2(C(=O)CO)O1 [FLUNISOLIDE] ; retrieve measured clearance.
output: 19

input: Which clearance value is on record for O=[N+]([O-])O[C@@H]1CO[C@H]2[C@@H]1OC[C@@H]2O [ISOSORBIDE MONONITRATE] ?
output: 11

input: GET /values?readout=clearance&item= CN1C(=O)OC(C)(C)C1=O [TRIMETHADIONE]
output: 1.6

###

experiment.description: Clearance in dog after iv administration
Format: ADME, organism-based, Canis lupus familiaris
settings: in vivo
Class assignment keyed on clearance, ranges lower segment = under 3 mL/min/kg, middle segment = from 3 mL/min/kg up to 7 mL/min/kg, upper segment = 7 mL/min/kg and over

input: Class label required: `CC[C@]1(O)C[C@H]2CN(CCc3c([nH]c4ccccc34)[C@@](C(=O)OC)(c3cc4c(cc3OC)N(C=O)[C@H]3[C@@](O)(C(=O)OC)[C@H](OC(C)=O)[C@]5(CC)C=CCN6CC[C@]43[C@@H]65)C2)C1`
output: upper segment

input: Using the reported clearance, which band applies to `CO/N=C(\C(=O)N[C@@H]1C(=O)N2C(C(=O)O)=C(CSc3nc(=O)c(=O)[nH]n3C)CS[C@H]12)c1csc(N)n1` ?
output: middle segment

input: Class? Entry: `CN1CCN(c2c(F)cc3c(=O)c(C(=O)O)cn(CCF)c3c2F)CC1`
output: lower segment

input: Hey, which category is `O=P(O)(O)C(Sc1ccc(Cl)cc1)P(=O)(O)O` in, do you know?
output: lower segment

input: Bin this entry: `C#CCCCC(=O)c1cc(C(C)(C)C)c(O)c(C(C)(C)C)c1`
output: upper segment

input: Returns: class label. Input: `COc1ccc2c(c1)c(CC(=O)O)c(C)n2C(=O)c1ccc(Cl)cc1`
output: lower segment

input: Categorize the following entry: `CCCCCNC(=O)c1coc([C@H]2[C@@H](Cc3ccccc3CCC(=O)O)[C@@H]3CC[C@H]2O3)n1`
output: upper segment

input: Band for CN(C)C(=O)CCSC(SCCC(=O)O)c1cccc(/C=C/c2ccc3ccc(Cl)cc3n2)c1 (stereo not drawn) ?
output: middle segment

input: Sort into band: `N[C@H](C(=O)O)[C@@H]1CC(Cl)=NO1`
output: lower segment

input: Exercise: read the entry `C#C[C@]1(O)CC[C@H]2[C@@H]3CCc4cc(O)ccc4[C@H]3[C@@H](OC)C[C@@]21C` and state which class it falls under.
output: middle segment

input: Assign a category based on measured clearance for `CO/N=C(\C(=O)N[C@@H]1C(=O)N2C(C(=O)[O-])=C(C[N+]34CCC(C(N)=O)(CC3)CC4)CS[C@H]12)c1nsc(N)n1` and give only the class name.
output: middle segment

input: Form: Item = Cc1c(C)c2c(c(C)c1O)CCC(C)(COc1ccc(CC3SC(=O)NC3=O)cc1)O2 (stereo not drawn) ; Class = ?
output: middle segment

input: For `C[C@@H](O)[C@H]1C(=O)N2C(C(=O)O)=C(COC(N)=O)S[C@H]12` , which clearance bin applies?
output: upper segment

input: // return the class label for `COC(=O)[C@H]1[C@@H](OC(=O)c2ccccc2)C[C@@H]2CC[C@H]1N2C`
output: upper segment

input: Which band does `CO[C@@]1(NC(=O)CSCC#N)C(=O)N2C(C(=O)O)=C(CSc3nnnn3C)CS[C@@H]21` fall in?
output: middle segment

input: Bin this entry: `NC1(C(=O)O)CC1`
output: lower segment
